# SYSTEM TESTED: T1, MRS full-length (in MRS-AIMP3 complex);AIMP3 (in MRS-AIMP3 complex) (human;human?, UniProt P56192;O43324 1-900;1-174, |)
# T1 sequence 1: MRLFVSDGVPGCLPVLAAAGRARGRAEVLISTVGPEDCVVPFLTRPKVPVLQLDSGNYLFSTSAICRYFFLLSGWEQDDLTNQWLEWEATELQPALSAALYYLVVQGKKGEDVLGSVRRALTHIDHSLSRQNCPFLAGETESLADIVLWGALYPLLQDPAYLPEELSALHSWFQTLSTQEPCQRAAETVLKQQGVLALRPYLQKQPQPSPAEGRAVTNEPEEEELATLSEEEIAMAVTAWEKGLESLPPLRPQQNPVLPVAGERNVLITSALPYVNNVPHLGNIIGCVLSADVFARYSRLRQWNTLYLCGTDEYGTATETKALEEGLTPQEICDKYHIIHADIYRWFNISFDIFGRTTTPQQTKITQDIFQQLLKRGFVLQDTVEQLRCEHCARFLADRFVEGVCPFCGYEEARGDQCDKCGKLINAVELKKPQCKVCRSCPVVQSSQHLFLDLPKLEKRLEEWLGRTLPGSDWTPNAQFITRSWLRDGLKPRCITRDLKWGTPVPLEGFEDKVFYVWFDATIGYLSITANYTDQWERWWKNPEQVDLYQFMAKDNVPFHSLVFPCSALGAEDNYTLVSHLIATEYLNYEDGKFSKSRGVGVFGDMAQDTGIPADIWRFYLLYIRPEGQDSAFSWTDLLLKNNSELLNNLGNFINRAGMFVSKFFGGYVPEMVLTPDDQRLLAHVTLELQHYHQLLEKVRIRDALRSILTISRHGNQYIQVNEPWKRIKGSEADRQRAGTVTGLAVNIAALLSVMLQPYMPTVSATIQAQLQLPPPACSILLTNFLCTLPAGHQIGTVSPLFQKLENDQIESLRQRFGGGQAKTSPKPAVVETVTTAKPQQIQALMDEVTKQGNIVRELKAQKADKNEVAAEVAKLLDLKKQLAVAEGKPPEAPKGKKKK
# T1 sequence 2: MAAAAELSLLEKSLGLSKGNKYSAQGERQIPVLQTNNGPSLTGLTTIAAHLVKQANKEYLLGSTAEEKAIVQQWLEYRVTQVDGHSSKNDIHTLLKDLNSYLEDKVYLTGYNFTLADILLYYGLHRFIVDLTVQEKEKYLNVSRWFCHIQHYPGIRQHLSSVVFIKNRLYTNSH
# ASSAY METHOD TEXT: MST; labeled RNA (80 nM); MST: PBS, 1-100 uM protein, 80 nM 6-FAM-RNA, temperature not stated; pull-down: 50 mM Tris-HCl pH 7.5, 150 mM NaCl, Ni-NTA (yeast total tRNA pool not listed)
# MEASUREMENT CONTEXT: protein: recombinant;recombinant; copies: 1;1; tRNA fold
ATTRIBUTE MEASURED: Kd (µM)
Report the figure in µM without appending any unit label.

Quick one: give measured Kd for 6-FAM synthetic elongator tRNAMet (structured_RNA, none stated (synthetic RNA)) RNA: GCCUCGUUAGCGCAGUAGGUAGCGCGUCAGUCUCAUAAUCUGAAGGUCGUGAGUUCGAUCCUCACACGGGGCA
31.6
